system: Waga; assay: Cell survival by CellTiterGlo, VP-MCC line Waga; type: cell-based; details: CellTiterGlo, normalized to DMSO
// returns No unless IC50 is strictly below 2000 nM, in which case Yes

As a guide, the following entries are already answered.
>  <Compound>
O=C1CC2SC3CC2(C=C1Br)C1=C(N3)C(=O)c2[nH]cc3c2C1=NCC3 (single isomer, unassigned; (+))

>  <Classification>
Yes

$$$$
>  <Compound>
O=C1C2=C3C4=[N+](CCc5c[nH]c1c54)[C@H]1C[C@@]34C[C@@H](N2)SC4=CC1=O [Compound 11, (+)-(2S,6R,8S) discorhabdin D]

>  <Classification>
Yes

$$$$
>  <Compound>
O=C1C=C[C@]2(C=C1Br)CCNC1=C2C2=NCCc3c[nH]c(c32)C1=O [Compound 22, (+)-(6S)-discorhabdin E]

>  <Classification>
Yes

$$$$
>  <Compound>
O=C1C2=C(C3=NCCc4c[nH]c1c43)C1(C=C(Br)C(O)C(Br)=C1)CCN2 (stereo not drawn) [Compound 16, 3-dihydrodiscorhabdin C]

>  <Classification>
No

$$$$
>  <Compound>
O=C1C(Br)=CC2(C=CNC3=C2C2=NCCc4c[nH]c(c42)C3=O)C=C1Br [Compound 20, 7,8-dehydrodiscorhabdin C]

>  <Classification>
No

$$$$

// next entry
Does this compound meet the criterion IC50 < 2000 nM? Cn1cnc(SC2=CC(=O)C=C3S[C@H]4C[C@@]23C2=C(N4)C(=O)c3[nH]cc4c3C2=NCC4)c1C[C@H](N)C(=O)O (relative stereo) [Compound 5, (+)-(6S,8S,7′S*) discorhabdin K] No

====

I'd appreciate it if you could supply AUC (arbitrary units) MKL-1 values for the items below.
tested on: MKL-1; test: Cell survival by CellTiterGlo, VP-MCC line MKL-1; assay type: cell-based; conditions: area under the dose-response curve; VP-MCC
Answers are plain numbers, in arbitrary units.

Consider the reported AUC (arbitrary units) MKL-1 for these molecules:
>  <Molecule>
CSC1=CC(=O)C(Br)=C[C@]12C=CNC1=C2C2=NCCc3c[nH]c(c32)C1=O [Compound 8, (+)-(6S) N-13-demethyldiscorhabdin U]

>  <Target System>
MKL-1

>  <AUC (arbitrary units) MKL-1>
5.221

$$$$
>  <Molecule>
O=C1C=C(S(=O)(=O)O)[C@@]2(C=CNC3=C2C2=NCCc4c[nH]c(c42)C3=O)C=C1Br

>  <Target System>
MKL-1

>  <AUC (arbitrary units) MKL-1>
917.6

$$$$
>  <Molecule>
O=C1C2=C(C3=NCCc4c[nH]c1c43)C1(C=C(Br)C(O)C(Br)=C1)CCN2 (stereo not shown) [Compound 16, 3-dihydrodiscorhabdin C]

>  <Target System>
MKL-1

>  <AUC (arbitrary units) MKL-1>
195.9

$$$$
>  <Molecule>
O=C1C=C[C@]2(C=C1Br)CCNC1=C2C2=NCCc3c[nH]c(c32)C1=O [Compound 22, (+)-(6S)-discorhabdin E]

>  <Target System>
MKL-1

>  <AUC (arbitrary units) MKL-1>
14.16

$$$$
>  <Molecule>
Cn1cc2c3c1C(=O)C1=C(C3=NCC2)[C@]2(C=CC(=O)C(Br)=C2)CCN1 [Compound 23, (+)-(6S)-N-13-methyldiscorhabdin E]

>  <Target System>
MKL-1

>  <AUC (arbitrary units) MKL-1>
23.33

$$$$

Provide each entry's AUC (arbitrary units) MKL-1 from the list below.
1. O=C1C=CC2(C=C1)CCNC1=C2C2=NCCc3c[nH]c(c32)C1=O
2. O=C1C(Br)=CC2(C=C1Br)CCNC1=C2C2=NCCc3c(Br)[nH]c(c32)C1=O

1. 682.4
2. 7.189

====

I'd appreciate it if you could supply increased activity against VP-MCC compared to the control values for the items below.
test system: VP-MCC cell lines (MKL-1, MKL-2, and Waga); test: Selectivity VP-MCC versus control cells (average AUC); type: cell-based

Consider the reported increased activity against VP-MCC compared to the control for these compounds:
>  <Compound>
O=C1C(Br)=CC2(C=C1Br)CCNC1=C2C2=NCCc3c(Br)[nH]c(c32)C1=O [Compound 19, 14-bromodiscorhabdin C]

>  <Endpoint Result>
> 10 fold

$$$$
>  <Compound>
O=C1C=C(SSC2=CC(=O)C(Br)=C[C@]23C=CNC2=C3C3=NCCc4c[nH]c(c43)C2=O)[C@@]2(C=CNC3=C2C2=NCCc4c[nH]c(c42)C3=O)C=C1Br [Compound 10, (−)-(6S,6′S) discorhabdin W]

>  <Endpoint Result>
> 10 fold

$$$$

Turning now to a further compound:
The reported VP-MCC cell lines (MKL-1, MKL-2, and Waga) increased activity against VP-MCC compared to the control of CSC1=CC(=O)C(Br)=C[C@]12C=CNC1=C2C2=NCCc3c[nH]c(c32)C1=O [Compound 8, (+)-(6S) N-13-demethyldiscorhabdin U] is > 10 fold

====

I'd appreciate it if you could supply AUC (arbitrary units) MCC26 values for the items below.
system: MCC26; experiment: Cell survival by CellTiterGlo, VN-MCC line MCC26; assay type: cell-based; details: area under the dose-response curve

Consider the reported AUC (arbitrary units) MCC26 for these molecules:
>  <Molecule>
O=C1C=C(S(=O)(=O)O)[C@@]2(C=CNC3=C2C2=NCCc4c[nH]c(c42)C3=O)C=C1Br [Compound 9]

>  <AUC (arbitrary units) MCC26>
793.9 arbitrary units

$$$$
>  <Molecule>
O=C1C2=C(C3=NCCc4c[nH]c1c43)c1c(cc(Br)c(O)c1Br)CCN2 [Compound 24, discorhabdin C phenol]

>  <AUC (arbitrary units) MCC26>
708.7 arbitrary units

$$$$
>  <Molecule>
Cn1cnc(SC2=CC(=O)C=C3S[C@H]4C[C@@]23C2=C(N4)C(=O)c3[nH]cc4c3C2=NCC4)c1C[C@H](N)C(=O)O (relative stereo) [Compound 5, (+)-(6S,8S,7′S*) discorhabdin K]

>  <AUC (arbitrary units) MCC26>
841.3 arbitrary units

$$$$
>  <Molecule>
Cn1cc2c3c1C(=O)C1=C(C3=NCC2)C2(C=C(Br)C(=O)C(Br)=C2)CCN1 [Compound 17, discorhabdin P]

>  <AUC (arbitrary units) MCC26>
140.1 arbitrary units

$$$$
>  <Molecule>
Cc1[nH]c2c3c1CCN=C3C1=C(NCCC13C=C(Br)C(=O)C(Br)=C3)C2=O [Compound 18, 14-methyldiscorhabdin C]

>  <AUC (arbitrary units) MCC26>
329.4 arbitrary units

$$$$

Turning now to a further molecule:
Measured AUC (arbitrary units) MCC26 of O=C1C=C[C@@]23C[C@@H](NC4=C2C2=NCCc5c[nH]c(c52)C4=O)SC3=C1 [Compound 4, (+)-(6S,8S) discorhabdin G*/I] : 140 arbitrary units

====

test system: MKL-1; assay: Cell survival by CellTiterGlo, VP-MCC line MKL-1; format: cell-based; conditions: area under the dose-response curve; VP-MCC
I'd appreciate it if you could supply AUC (arbitrary units) MKL-1 values for the items below.
One number for each entry, in arbitrary units.

>  <Molecule>
O=C1CC2SC3CC2(C=C1Br)C1=C(N3)C(=O)c2[nH]cc3c2C1=NCC3 (single isomer, unassigned; (+))

>  <Target System>
MKL-1

>  <Unit Abbrev>
arbitrary units

>  <AUC (arbitrary units) MKL-1>
4.944

$$$$
>  <Molecule>
Cc1[nH]c2c3c1CCN=C3C1=C(NCCC13C=C(Br)C(=O)C(Br)=C3)C2=O

>  <Target System>
MKL-1

>  <Unit Abbrev>
arbitrary units

>  <AUC (arbitrary units) MKL-1>
20.95

$$$$
>  <Molecule>
O=C1C2=C3C4=[N+](CCc5c[nH]c1c54)[C@H]1C[C@@]34C[C@@H](N2)SC4=CC1=O [Compound 11, (+)-(2S,6R,8S) discorhabdin D]

>  <Target System>
MKL-1

>  <Unit Abbrev>
arbitrary units

>  <AUC (arbitrary units) MKL-1>
60.49

$$$$
>  <Molecule>
O=C1C(Br)=CC2(C=CNC3=C2C2=NCCc4c[nH]c(c42)C3=O)C=C1Br [Compound 20, 7,8-dehydrodiscorhabdin C]

>  <Target System>
MKL-1

>  <Unit Abbrev>
arbitrary units

>  <AUC (arbitrary units) MKL-1>
376.3

$$$$
>  <Molecule>
O=C1C2=C(C3=NCCc4c[nH]c1c43)c1c(cc(Br)c(O)c1Br)CCN2

>  <Target System>
MKL-1

>  <Unit Abbrev>
arbitrary units

>  <AUC (arbitrary units) MKL-1>
279.7

$$$$

Measured AUC (arbitrary units) MKL-1 of CSC1=CC(=O)C=C2S[C@H]3C[C@@]12C1=C(N3)C(=O)c2[nH]cc3c2C1=NCC3 [Compound 7, (+)-(6R,8S) thiomethyldiscorhabdin G*/I] : 144.5
